Test system: MS2 coat protein
Assay: apparent KD of MS2 coat protein; higher = weaker reporter binding
Assay context: Eterna round: R107; input ligand: arginine 13.2 mM
Threshold rule: apparent KD of MS2 coat protein greater than or equal to 20 nM is Criterion met; below that, Criterion not met.

Chain	Assayed system	Assigned class
AAUGAGUGGUGGUCAAGUGAUCCUCAUGAACGAGGACCGGUACGGCCGCCACUCGAUAACAUGAGGAUCACCCAUGUAAUAAUAA [|T'-M'-Trp-Ms2|_Design8]	MS2 coat protein	Criterion not met
AACAUGAGGAUCACCCAUGUGUCCUCGAAACGAGGACCGGUACGGCCGCCACUCGAAAAGGUGUUGACGAAAAGUCAGCACCAAA [Mat - Exclusion - Trytophan A - D16]	MS2 coat protein	Criterion met
ACAUGAGGAUCACCCAUGUUGCUGACAGAAGGAGCGUGAUUAAGCACAGGUAGGUCGCUGUUGGUAUCGAGCGUUAGCUCGAUAC [SSArg A #8]	MS2 coat protein	Criterion met
AGAUAACAUGGUUUAAUAAGAUAAACUGAUACCAGUGUAUAUAAUCACCCUUGGCAGCAGCAACAUGAGGAUCACCCAUGUAAUA [JR_SSTheophyA_Sub014]	MS2 coat protein	Criterion not met

Next item in the queue.
Prompt line: Does the reported apparent KD of MS2 coat protein for AUGUCACAUGAGGAUCACCCAUGUAUGGAUACCAGUUUAGUGAAUAACCCUUGGCAGCCAAGGAUGCGACAGAAAUCCGGAAAAC [theeternabot_sameState_MS2_Theo_A_22] fall at or above the 20 nM mark?
Response line: Criterion not met

---

Test system: MS2 coat protein
Assay: apparent KD of MS2 coat protein; higher = weaker reporter binding
Assay context: Eterna round: R107; input ligand: none
The following sequences are listed with their measured apparent KD of MS2 coat protein values.
Hi, when you answer, please include the unit after the number. Thanks!

Prompt line: Determine reported apparent KD of MS2 coat protein for UCACGACGCAACGUGAAAUAAUAAACAGAAGGAGCGAGGAAAGCCUCAGGUAGGUCGCUGACAUGAGGAUCACCCAUGUAUUACA [Same State Arginine A GF5] ; test system: MS2 coat protein.
Response line: 0.0315 µM

Prompt line: Determine reported apparent KD of MS2 coat protein for UGCCGAGACGUGGAUUACCCAUGUACCGAAGGAGCGCCCGAAAGGGCAGGUAGGUCGCGGAGGACAUGAGGAUCACCCAUGUCGA ; test system: MS2 coat protein.
Response line: 0.0345 µM

Prompt line: Determine reported apparent KD of MS2 coat protein for GGAUAGGACACGGCCGCCACUACCUAGGAUACUAGCAACAUUUGGGUACAAGAGGAUCACCCUUGUAGGACCGGGUGUCCUAUCG ; test system: MS2 coat protein.
Response line: 0.0221 µM

Prompt line: Determine reported apparent KD of MS2 coat protein for GGUCUCUGGAGCGAUACCAGCUUAAUUGUACUGGCCAGGUACAUGAGGAUCACCCAUGUAAGCCCUUGGCAGCGCUCCAGAGACC [#1 Exclusion - Theophylline B Attempt #12 (HarryS)] ; test system: MS2 coat protein.
Response line: 0.0121 µM

Prompt line: Determine reported apparent KD of MS2 coat protein for GGUGGCGGGACUGAUACCAGCCACCACCGAUAGACCACAUGAGGAUCACCCAUGUUGGGUGGCCCUUGGCAGCAGUCUUGCUGCC [#1 Same State - Theophylline B Attempt #12 (HarryS)] ; test system: MS2 coat protein.
Response line: 0.206 µM

Hey, just so you know, these numbers are from the supplement of paper PMC9170038.
